Target: interaction between CTLA-4 and B7-1 (Homo sapiens)
Construct: purchased BPS Bioscience Inc
Assay: CTLA-4:B7-1[Biotinylated] Inhibitor Screening Assay (BPS Bioscience kit)
Assay type: binding
Conditions: values printed in Figure 7; read-out: IC50, CTLA-4/B7-1 interaction inhibitory activity
Observation type: IC50 (µM)
// return numeric value only (unit: µM, not printed)

Input: Value lookup for IC50; key = N=C(N)NCCC[C@H]1C(=O)N(CCc2ccccc2)C[C@@H]2N(C(=O)OCc3ccccc3)O[C@H](CC3CCCCC3)C(=O)N21
Output: 60

###

Measured pIC50 accompanies every entry in the list below.
Target: interaction between CTLA-4 and B7-1 (Homo sapiens, UniProt P16410)
Construct: purchased BPS Bioscience Inc
Sequence (P16410 36-161 limits assumed): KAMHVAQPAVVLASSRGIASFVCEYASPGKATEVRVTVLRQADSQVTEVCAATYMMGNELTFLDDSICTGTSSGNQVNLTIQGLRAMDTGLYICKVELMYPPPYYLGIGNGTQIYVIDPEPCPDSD
Assay: CTLA-4:B7-1[Biotinylated] Inhibitor Screening Assay (BPS Bioscience kit)
Type: binding
Settings: inhibition of CTLA-4:B7-1 interaction, luminescence, four-parameter logistic fit; read-out: IC50
Answer as the number alone; pIC50 is minus log10 of concentration in mol/L.

chemical_structure=CC(C)[C@H]1ON(C(=O)OCc2ccccc2)[C@H]2CN(CCc3ccccc3)C(=O)[C@H](Cc3c[nH]cn3)N2C1=O target_system="interaction between CTLA-4 and B7-1 (Homo sapiens, UniProt P16410)" observation_type=pIC50 recorded_measurement=3.53

Input: What does the data say about its pIC50? Entry: N=C(N)NCCC[C@H]1C(=O)N(CCC(c2ccccc2)c2ccccc2)C[C@@H]2N(C(=O)OCc3ccccc3)O[C@H](CC3CCCCC3)C(=O)N21
Output: 5.17

Input: Quick one: CC(C)[C@H]1ON(C(=O)OCc2ccccc2)[C@H]2CN(CCc3ccccc3)C(=O)[C@H](CCCNC(=N)N)N2C1=O
Output: 3.83

Input: Please do the same for N=C(N)NCCC[C@H]1C(=O)N(CCc2ccccc2)C[C@@H]2N(C(=O)OCc3ccccc3)O[C@H](CC3CCCCC3)C(=O)N21 as well.
Output: 4.10
